Data origin, for the record: patent US20240409645A1

Target of assay: cynomolgus monkey IL-2Rα/CD25 subunit (cynomolgus monkey) (UniProt H6WS54)
Sequence (H6WS54 entry or part of it): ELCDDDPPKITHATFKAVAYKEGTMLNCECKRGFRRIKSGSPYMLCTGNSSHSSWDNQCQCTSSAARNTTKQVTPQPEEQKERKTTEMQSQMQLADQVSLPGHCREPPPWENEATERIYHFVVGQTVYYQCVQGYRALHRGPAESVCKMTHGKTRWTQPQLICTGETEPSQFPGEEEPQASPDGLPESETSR
Assay summary: ELISA, monovalent; EC50 cyno vs human subunit
Parameter: Fold change (fold)
Numbers only, in fold.

- 10-MP05F03 VHH-hFc, monospecific monovalent (Fc fusion, part only; not given: Both Fc arms and linker, not shown: another chain or arm of the molecule; a dimerising Fc or GST; small tags and cut ends) VHH: QVQLVESGGGLVQAGGSLRLSCAASGIPFDNYAMGWFRQAPGKEREFVAARDLEGIITRYGDSVKGRFTISRGNAKNTVFLQMNSLKPEDTAVYYCAARDGGVVAGSRSSAQYNYWGQGTQVTVSS: 0.9
- 6-MP01G05 VHH-hFc, monospecific monovalent (Fc fusion, part only; not given: Both Fc arms and linker, not shown: another chain or arm of the molecule; a dimerising Fc or GST; small tags and cut ends) VHH: QVQLQESGGGLVQAGGSLRLSCAASGRTFSSYAMGWFRQAPGKEREFVAVISWNVDNTEYTDSVKGRFTISRDNDKNMVYLQMNSLKPEDTAVYYCAADSIPLSSDMSPTATEYGYWGQGTQVTVSS: 1.2
- 4-MP01F04 VHH-hFc, monospecific monovalent (Fc fusion, part only; not given: Fc arms with stated mutations, not shown: another chain or arm of the molecule; a dimerising Fc or GST; small tags and cut ends) VHH: QVQLVESGGGLVQAGGSLRLSCAASGGTFRTRNMGWFRRAPGKEREFVAAVSWNVDNKLYADSVKGRFTISRDNGRNMVYLQMNSLKPEDTAVYYCAADNIPLSSDMRPTATEYDYWGQGTQVTVSS: 1
- 7-MP01G08 VHH-hFc, monospecific monovalent (Fc fusion, part only; not given: Both Fc arms and linker, not shown: another chain or arm of the molecule; a dimerising Fc or GST; small tags and cut ends) VHH: EVQLVESGGGLVQAGGSLRLSCAASGRAFSMYNMGWFRQAPGKEREFVAATGWSGANTPYADSVKGRFTISRDNTQNTVYLQMNSLKPEDTATYYCAADSIRLRSDVTRIPLEYDYWGQGTQVTVSS: 0.8
- 1-MP01H01 VHH-hFc, monospecific monovalent (Fc fusion, part only; not given: Both Fc arms and linker, not shown: another chain or arm of the molecule; a dimerising Fc or GST; small tags and cut ends) VHH: EVQLVESGGGLVQAGGSLRLSCAASGRTFRTHNMGWFRRAPGKEREFVAAISWNVDNTLYADSVKGRFTISRDNGRNMVYLQMNSLKPEDTAVYYCAADNIPLSSDVAATATEYDYWGQGTQVTVSS: 1

Would you mind giving Fold change for every binder in the list below?
1. 2-MP01A02 VHH-hFc, monospecific monovalent (Fc fusion, part only; not given: Both Fc arms and linker, not shown: another chain or arm of the molecule; a dimerising Fc or GST; small tags and cut ends) VHH: QVQLVESGGGLVQPGGSLRLSCATSGFTFRNNFMSWVRQAPGKGLEWVSTISYGGESTTYAESVKGRFTISRDNAKNTLYLQMNNLKPEDTAVYYCAKATSYDSIRSGSRGQGTQVTVSS
2. 11-MP05H04 VHH-hFc, monospecific monovalent (Fc fusion, part only; not given: Both Fc arms and linker, not shown: another chain or arm of the molecule; a dimerising Fc or GST; small tags and cut ends) VHH: QLQLVESGGGLVQAGGSLRLSCAASGLTFEGYAIGWFRQAPGKEREGVSYITGSDGTTYYINSVKGRFTISSDNAKSTVYLQMNTLKPEDTAVYYCAVDRLGSQGRYASAWWRSGDMDLWGKGTQVTVSS
3. 5-MP01F05 VHH-hFc, monospecific monovalent (Fc fusion, part only; not given: Both Fc arms and linker, not shown: another chain or arm of the molecule; a dimerising Fc or GST; small tags and cut ends) VHH: EVQLVESGGGLVQAGGSLRLSCAASIRAFTTWSMAWFRQAPGKEREYVARINVSGSVTYYADFVKGRFTISRDNAKKTMYLEMNNLKPEDTALYYCAADRTGVGTNDYNYWGQGTQVTVSS

RESULT:
[1.3, 3.3, 1.5]
